// provenance: ChEMBL document CHEMBL2331414

SYSTEM: Polyunsaturated fatty acid 5-lipoxygenase (Homo sapiens)
Sequence (P09917 whole entry): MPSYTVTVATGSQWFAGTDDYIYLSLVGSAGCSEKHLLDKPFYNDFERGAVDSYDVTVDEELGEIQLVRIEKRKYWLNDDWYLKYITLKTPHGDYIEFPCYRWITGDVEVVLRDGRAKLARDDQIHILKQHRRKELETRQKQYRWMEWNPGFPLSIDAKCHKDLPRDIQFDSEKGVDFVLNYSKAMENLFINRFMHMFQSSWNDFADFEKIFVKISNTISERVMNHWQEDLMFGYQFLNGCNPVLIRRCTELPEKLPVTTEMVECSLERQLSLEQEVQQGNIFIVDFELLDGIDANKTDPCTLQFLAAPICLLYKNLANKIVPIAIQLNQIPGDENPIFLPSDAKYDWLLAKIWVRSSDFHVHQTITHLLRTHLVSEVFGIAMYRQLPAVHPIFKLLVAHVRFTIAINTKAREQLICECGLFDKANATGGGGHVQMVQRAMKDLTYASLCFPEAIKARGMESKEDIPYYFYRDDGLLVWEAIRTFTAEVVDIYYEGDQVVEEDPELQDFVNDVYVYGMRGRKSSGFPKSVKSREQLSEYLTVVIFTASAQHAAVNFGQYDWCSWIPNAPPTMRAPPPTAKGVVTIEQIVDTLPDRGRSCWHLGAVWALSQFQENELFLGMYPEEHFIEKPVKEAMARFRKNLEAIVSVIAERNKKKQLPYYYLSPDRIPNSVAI
METHOD DESCRIPTION: Inhibition of 5LOX (unknown origin) using arachidonic acid as substrate at 10 uM after 5 mins by spectrophotometric analysis
OBSERVED PROPERTY: inhibition (%)

[
  {
    "MOL SMILES": "O=C(C(=O)N1CCOCC1)c1cn(C(=O)/C=C/c2ccccc2)c2ccccc12",
    "SYSTEM": "Polyunsaturated fatty acid 5-lipoxygenase (Homo sapiens)",
    "OBSERVED PROPERTY": "inhibition",
    "MEASURED RESULT": 59.2
  },
  {
    "MOL SMILES": "Cc1ccc(S(=O)(=O)n2cc(C(=O)C(=O)N3CCCC3)c3ccccc32)cc1",
    "SYSTEM": "Polyunsaturated fatty acid 5-lipoxygenase (Homo sapiens)",
    "OBSERVED PROPERTY": "inhibition",
    "MEASURED RESULT": 95.4
  },
  {
    "MOL SMILES": "COc1ccc2c(c1)c(C(=O)C(=O)N1CCCC1)cn2C(=O)/C=C/c1ccccc1",
    "SYSTEM": "Polyunsaturated fatty acid 5-lipoxygenase (Homo sapiens)",
    "OBSERVED PROPERTY": "inhibition",
    "MEASURED RESULT": 68.6
  },
  {
    "MOL SMILES": "COc1ccc2c(c1)c(C(=O)C(=O)N1CCOCC1)cn2OS(=O)(=O)c1ccc(C)cc1",
    "SYSTEM": "Polyunsaturated fatty acid 5-lipoxygenase (Homo sapiens)",
    "OBSERVED PROPERTY": "inhibition",
    "MEASURED RESULT": 59.2
  },
  {
    "MOL SMILES": "O=C(C(=O)N1CCCC1)c1cn(C(=O)c2ccccc2)c2ccccc12",
    "SYSTEM": "Polyunsaturated fatty acid 5-lipoxygenase (Homo sapiens)",
    "OBSERVED PROPERTY": "inhibition",
    "MEASURED RESULT": 59.6
  }
]

====

We begin with a simple list: items and their reported pIC50.
SYSTEM: Polyunsaturated fatty acid 5-lipoxygenase (Homo sapiens)
METHOD DESCRIPTION: Inhibition of 5LOX (unknown origin) using arachidonic acid as substrate after 5 mins by spectrophotometric analysis
pIC50: −log10 of the molar value.
OBSERVED PROPERTY: pIC50

[
  {
    "MOL SMILES": "O=C(C(=O)N1CCCC1)c1cn(C(=O)c2ccccc2)c2ccccc12",
    "SYSTEM": "Polyunsaturated fatty acid 5-lipoxygenase (Homo sapiens)",
    "OBSERVED PROPERTY": "pIC50",
    "MEASURED RESULT": 6.00
  },
  {
    "MOL SMILES": "COc1ccc2c(c1)c(C(=O)C(=O)N1CCOCC1)cn2OS(=O)(=O)c1ccc(C)cc1",
    "SYSTEM": "Polyunsaturated fatty acid 5-lipoxygenase (Homo sapiens)",
    "OBSERVED PROPERTY": "pIC50",
    "MEASURED RESULT": 6.00
  },
  {
    "MOL SMILES": "COc1ccc2c(c1)c(C(=O)C(=O)N1CCCC1)cn2C(=O)/C=C/c1ccccc1",
    "SYSTEM": "Polyunsaturated fatty acid 5-lipoxygenase (Homo sapiens)",
    "OBSERVED PROPERTY": "pIC50",
    "MEASURED RESULT": 6.00
  }
]

====

Examples of compounds with documented inhibition follow.
SYSTEM: Polyunsaturated fatty acid 5-lipoxygenase (Homo sapiens)
METHOD DESCRIPTION: Inhibition of 5LOX (unknown origin) using arachidonic acid as substrate at 0.01 uM after 5 mins by spectrophotometric analysis

[
  {
    "MOL SMILES": "Cc1ccc(S(=O)(=O)n2cc(C(=O)C(=O)N3CCCC3)c3ccccc32)cc1",
    "SYSTEM": "Polyunsaturated fatty acid 5-lipoxygenase (Homo sapiens)",
    "UNIT STRING": "%",
    "inhibition": 0.9
  },
  {
    "MOL SMILES": "COc1ccc2c(c1)c(C(=O)C(=O)N1CCOCC1)cn2OS(=O)(=O)c1ccc(C)cc1",
    "SYSTEM": "Polyunsaturated fatty acid 5-lipoxygenase (Homo sapiens)",
    "UNIT STRING": "%",
    "inhibition": 4.7
  },
  {
    "MOL SMILES": "O=C(C(=O)N1CCCC1)c1cn(C(=O)c2ccccc2)c2ccccc12",
    "SYSTEM": "Polyunsaturated fatty acid 5-lipoxygenase (Homo sapiens)",
    "UNIT STRING": "%",
    "inhibition": 6.8
  },
  {
    "MOL SMILES": "O=C(C(=O)N1CCOCC1)c1cn(C(=O)/C=C/c2ccccc2)c2ccccc12",
    "SYSTEM": "Polyunsaturated fatty acid 5-lipoxygenase (Homo sapiens)",
    "UNIT STRING": "%",
    "inhibition": 2.5
  },
  {
    "MOL SMILES": "COc1ccc2c(c1)c(C(=O)C(=O)N1CCCC1)cn2C(=O)/C=C/c1ccccc1",
    "SYSTEM": "Polyunsaturated fatty acid 5-lipoxygenase (Homo sapiens)",
    "UNIT STRING": "%",
    "inhibition": 5.9
  }
]
